System Name: T1, human CD38 on cells (human, UniProt P28907 1-300)
T1 construct: The cell that carried CD38 is named under assay in each row; also called CD38 on Raji, RPMI8226, OPM2, CCRF-CEM, human erythrocytes, CD38 CHO-K1 transfectants
Assay Text: FACS Scatchard on OPM2 cells, IgG format
Hi there, I'd appreciate the recorded pEC50 for every entry that follows.
Numbers only, as −log10 of the molar value.

So, MOR06200 IgG (antibody, V domains shown, copies: 2 + 2) VH: QVQLVESGGGLVQPGGSLRLSCAASGFTFSSYYMNWVRQAPGKGLEWVSAISNNGNVTYYADSVKGRFTISRDNSKNTLYLQMNSLRAEDTAVYYCARDLPLVYTGFAYWGQGTLVTVSS VL: DIELTQPPSVSVAPGQTARISCSGDNLRHYYVYWYQQKPGQAPVLVIYGDSKRPSGIPERFSGSNSGNTATLTISGTQAEDEADYYCQTYTGGASLVFGGGTKLTVLG ? Its pEC50 was 8.15

Below are 2 binders. Give each one its pEC50.
1. MOR06188 IgG (antibody, V domains shown) VH: QVQLVESGGGLVQPGGSLRLSCAASGFTFSSYYMNWVRQAPGKGLEWVSAISTNGWQTYYADSVKGRFTISRDNSKNTLYLQMNSLRAEDTAVYYCARDLPLVYTGFAYWGQGTLVTVSS VL: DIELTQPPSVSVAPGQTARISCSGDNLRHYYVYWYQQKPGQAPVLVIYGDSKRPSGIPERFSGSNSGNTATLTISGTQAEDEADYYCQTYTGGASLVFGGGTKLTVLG
2. MOR06183 IgG (antibody, V domains shown) VH: QVQLVESGGGLVQPGGSLRLSCAASGFTFSSYYMNWVRQAPGKGLEWVSGINMESTRIYYADSVKGRFTISRDNSKNTLYLQMNSLRAEDTAVYYCARDLPLVYTGFAYWGQGTLVTVSS VL: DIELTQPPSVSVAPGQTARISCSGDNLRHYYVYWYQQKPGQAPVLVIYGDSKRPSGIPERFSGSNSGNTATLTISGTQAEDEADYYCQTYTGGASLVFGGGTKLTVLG

Marked response:
1: 7.70; 2: 8.05
